All figures here come from PubChem BioAssay AID1159580.

- test.method.notes: chemical genetic growth profiling, strain panel (AID 1159580);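 note: tested at 20 µM; growth read once vehicle control cultures reached saturation at 30 °C; 1 = growth at the plate median or of vehicle wells; lower values mean less growth of the strain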
- condition.notes: S. cerevisiae deletion strains, growth OD, locus YML120C, strain ndi1, hits give low values
Out of some 5,500 compounds screened, about 2,000 (36%) were called active. Not shown: some 18% with an inconclusive outcome. The list shows a part of the results. *1 amine or outer side, *2 acyl side, *3 side chain or, on linkers, in order; H or OH if unused. Where a SMILES comes first, the peptide text is derived from it. Bridges are numbered along the chain shown (N, C = ends). [ ]: non-standard residue; d: D form. The star is where a group is joined. ξ: configuration not given here. ΔAla(E,3-NHCONH2) = NC(=O)N/C=C(/N)C(=O)O; X2 = NC1=NCCC(C(N[*:1])C(=O)[*:2])N1; ξβ3hOrn = NCCCC(N)CC(=O)*; Dap = NC[CH](N)C(=O)O
Kindly supply the reported normalized growth values for the records listed here.
Returns: the value as a bare number; no unit string appended.

Query: Data request, read-out normalized growth, for C#CC1(O)CCC2C3CCC4=CC(=O)CCC4(C)C3CCC21C (configuration not stated)
Reply: 0.99

Query: Data request, read-out normalized growth, for CCOc1cccc(C(=O)c2ccc(O)c(O)c2O)c1
Reply: 0.765

Query: Data request, read-out normalized growth, for CN(C)C(=N)N=C(N)N
Reply: 0.992

Query: Data request, read-out normalized growth, for C#C[C@]1(O)CCC2C3CCC4=Cc5oncc5C[C@]4(C)C3CC[C@@]21C (some centres not stated)
Reply: 0.924

Query: Data request, read-out normalized growth, for CCN(CC)CCNC(=O)c1cc(Cl)c(N)cc1OC
Reply: 0.945

Query: Data request, read-out normalized growth, for CC(=O)NS(=O)(=O)c1ccc(NC(=O)c2ccccc2C(=O)O)cc1
Reply: 1.01

Query: Data request, read-out normalized growth, for COC(=O)C[C@H]1C(C)(C)[C@@H](O)[C@@H]2CC3=C4C=C(OC)O[C@@H](c5ccoc5)[C@]4(C)CCC3[C@@]1(C)C2=O (some centres not stated)
Reply: 0.998

Query: Data request, read-out normalized growth, for COc1c2ccoc2cc2oc(C)cc(=O)c12
Reply: 1.02

Query: Data request, read-out normalized growth, for Cc1c(NC(=O)c2cccnc2)c(=O)n(-c2ccccc2)n1C
Reply: 1.02

Query: Data request, read-out normalized growth, for CC1(C)C=Cc2cc3ccc(=O)oc3cc2O1
Reply: 0.85

Query: Data request, read-out normalized growth, for C[C@]12CCC(=O)C=C1CCC1C2[C@@H](O)C[C@@]2(C)C1CC[C@]2(O)C(=O)COC(=O)CCC(=O)O (some centres not stated)
Reply: 1.02

Query: Data request, read-out normalized growth, for CC(=O)Oc1cc2c(c(C)c1OC(C)=O)CC1OC13C2(C)CCC1(C)C2CC(C)(C(=O)O)CCC2(C)CCC13C (configuration not stated)
Reply: 1.02

Query: Data request, read-out normalized growth, for O=C(O)[C@H](O)[C@@](O)(Cc1ccc(O)cc1)C(=O)O
Reply: 1

Query: Data request, read-out normalized growth, for COc1ccc2c(=O)ccoc2c1
Reply: 1.03

Query: Data request, read-out normalized growth, for CCCc1nc2c(C)cc(-c3nc4ccccc4n3C)cc2n1Cc1ccc(-c2ccccc2C(=O)O)cc1
Reply: 1

Query: Data request, read-out normalized growth, for CNS(=O)(=O)c1ccc(NC(=O)c2ccccc2C(=O)O)cc1
Reply: 0.992

Query: Data request, read-out normalized growth, for NC(=O)NO
Reply: 0.997

Query: Data request, read-out normalized growth, for CC1=C(O)C(=O)C=C2C1=CC=C1[C@@]2(C)CC[C@@]2(C)[C@@H]3C[C@](C)(C(=O)O)CC[C@]3(C)CC[C@]12C
Reply: 0.608

Query: Data request, read-out normalized growth, for NCCCC(N)CC(=O)NCC1NC(=O)C(CO)NC(=O)C(N)CNC(=O)C(C2CCN=C(N)N2)NC(=O)/C(=C\NC(N)=O)NC1=O (stereo not drawn) (H-[Dap]S[Dap](ξβ3hOrn)[ΔAla(E,3-NHCONH2)][X2]; lactam 1-C; configuration not given here)
Reply: 1.05

Query: Data request, read-out normalized growth, for CO[C@H]1C[C@H](O[C@H]2[C@H](C)[C@@H](OC3O[C@H](C)C[C@H](N(C)C)[C@H]3OC(C)=O)[C@@H](C)C[C@]3(CO3)C(=O)[C@H](C)[C@@H](OC(C)=O)[C@@H](C)[C@@H](C)OC(=O)[C@@H]2C)O[C@@H](C)[C@@H]1OC(C)=O (some centres not stated)
Reply: 0.989

Query: Data request, read-out normalized growth, for COc1cc(-c2coc3cc(O[C@@H]4O[C@H](CO)[C@@H](O)[C@H](O)[C@H]4O)c(OC)c(O)c3c2=O)cc(O)c1OC
Reply: 0.99

Query: Data request, read-out normalized growth, for c1ccc([C@H]2CN3CCSC3=N2)cc1
Reply: 0.988

Query: Data request, read-out normalized growth, for CC(=O)OCC1=C(C(=O)O)N2C(=O)[C@@H](NC(=O)CCCC(N)C(=O)O)C2SC1 (some centres not stated)
Reply: 0.996

Query: Data request, read-out normalized growth, for O=C(CCc1ccc(O)cc1)c1c(O)cc(O)cc1O[C@@H]1O[C@H](CO)[C@@H](O)[C@H](O)[C@H]1O
Reply: 1.01

Query: Data request, read-out normalized growth, for CN1CCN(CCC=C2c3ccccc3Sc3ccc(S(=O)(=O)N(C)C)cc32)CC1
Reply: 0.984

Query: Data request, read-out normalized growth, for CC(=O)OC[C@H]1O[C@@H](Oc2cc(OC(C)=O)c3c(=O)cc(-c4ccc(OC(C)=O)cc4)oc3c2)[C@H](OC(C)=O)[C@@H](OC(C)=O)[C@@H]1OC(C)=O
Reply: 0.998

Query: Data request, read-out normalized growth, for CN1CCN(CCCN2c3ccccc3Sc3ccc(C(F)(F)F)cc32)CC1
Reply: 0.0683

Query: Data request, read-out normalized growth, for CNS(=O)(=O)Cc1ccc2[nH]cc(CCN(C)C)c2c1
Reply: 1.02

Query: Data request, read-out normalized growth, for O=C(OC[C@H]1O[C@H](OC(=O)c2cc(O)c(O)c(OC(=O)c3cc(O)c(O)c(O)c3)c2)[C@H](OC(=O)c2cc(O)c(O)c(OC(=O)c3cc(O)c(O)c(O)c3)c2)[C@@H](OC(=O)c2cc(O)c(O)c(OC(=O)c3cc(O)c(O)c(O)c3)c2)[C@@H]1OC(=O)c1cc(O)c(O)c(OC(=O)c2cc(O)c(O)c(O)c2)c1)c1cc(O)c(O)c(OC(=O)c2cc(O)c(O)c(O)c2)c1
Reply: 0.617

Query: Data request, read-out normalized growth, for NC(N)=NC(N)=Nc1ccccc1
Reply: 0.995

Query: Data request, read-out normalized growth, for CO[C@@]1(NC(=O)Cc2cccs2)C(=O)N2C(C(=O)O)=C(COC(N)=O)CS[C@@H]21
Reply: 0.986

Query: Data request, read-out normalized growth, for NC(=O)N1c2ccccc2C=Cc2ccccc21
Reply: 1.03
